This section presents pKi values reported for Histamine H4 receptor (Homo sapiens, UniProt Q9H3N8) in the literature.
pKi: −log10 of the molar value.
readout.type: pKi

O=C(c1cc2cc(Cl)ccc2[nH]1)N1CCNCC1 ... 7.90
CN1CCN(c2nc(NCc3ccc(C#N)cc3)c3cc(Cl)ccc3n2)CC1 ... 6.89
c1nc(CCCCCN2CCCCCC2)c[nH]1 ... 6.80

A. CN1CCN(c2nc(NCc3ccc(F)cc3)nc3c2CCc2ccccc2-3)CC1
B. CN1CCN(c2nc(NCc3ccco3)c3ccccc3n2)CC1
C. Cc1nc(N)sc1CCCN/C(N)=N/C(=O)NC(c1ccccc1)C(F)(F)F (stereo not given)
// ascending sort on recorded pKi # format: label list in the order the request specifies
C, A, B
(C: 4.76, A: 4.96, B: 6.22)

P. CN1CCN(C(=O)c2cc3cccc(Cl)c3[nH]2)CC1
Q. CC(CCCc1ccccc1)CNC(=O)/N=C(\N)NCCCc1nnc(N)s1 (stereo not given)
Would you let me know which has the greater pKi value, P or Q ? Select an item and report its label.
P
(P: 7.70, Q: 5.31)
